# Measured Target: E. coli SPase (Escherichia coli, UniProt P00803)
# Construct: Full length His-tagged E. coli SPase proteins; His; made in house; host or cells: E. coli BL21(DE3)
# Sequence (P00803 whole entry): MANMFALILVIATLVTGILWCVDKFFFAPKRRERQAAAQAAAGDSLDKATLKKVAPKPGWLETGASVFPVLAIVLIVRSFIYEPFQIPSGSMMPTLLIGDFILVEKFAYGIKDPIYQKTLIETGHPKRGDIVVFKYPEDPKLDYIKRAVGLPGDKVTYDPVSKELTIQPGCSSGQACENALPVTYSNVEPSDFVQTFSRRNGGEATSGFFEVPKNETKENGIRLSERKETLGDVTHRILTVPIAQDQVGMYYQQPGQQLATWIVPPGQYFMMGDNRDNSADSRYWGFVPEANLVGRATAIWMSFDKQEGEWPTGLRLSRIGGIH
# Experimental Details: Biochemical SPase activity assay, fluorogenic peptide substrate, E. coli enzyme
# Condition Context: 20 μM substrate, 10 minutes preincubation, read-out: IC 50 (nM) E. coli
*1 amine or outer side, *2 acyl side, *3 side chain or, on linkers, in order; H or OH if unused. Where a SMILES comes first, the peptide text is derived from it. [ ]: non-standard residue; d: D form. The star is where a group is joined. boroAla((+)-pinanediol) = C[C@H](N*)B1O[C@@H]2C[C@@H]3C[C@@H](C3(C)C)[C@]2(C)O1; Biphenylcarbonyl(4'-Bu) = CCCCc1ccc(-c2ccc(C(=O)*)cc2)cc1; X5 = C[C@H](N*)B1OC2C[C@@H]3C[C@@H](C3(C)C)[C@]2(C)O1; Benzoyl(4-(4-Cl-Ph)) = O=C(c1ccc(-c2ccc(Cl)cc2)cc1)*; X1 = C[C@H](N[*:1])C(=O)C(=O)[*:2]; X12 = C[C@H](N*)C(=O)c1nc2ccccc2o1; aThr = C[C@H](O)[C@H](N)C(=O)O; Dab = NCC[C@H](N)C(=O)O; Dap = NC[C@H](N)C(=O)O; NHBu = CCCCN*
Measurement Label: IC50 (nM)
Numbers only here, please. The scale is nM.

Sample records with IC50:
Compound	IC50 [nM]
CCCCc1ccc(-c2ccc(C(=O)N[C@@H](CCN)C(=O)N[C@H](C(=O)N[C@@H](C)C(=O)N[C@@H](CCCCN)C(=O)N[C@@H](C)C(=O)C3OC3C)[C@@H](C)O)cc2)cc1 (single isomer, unassigned) [Compound 203 P2]	1500
CCCCc1ccc(-c2ccc(C(=O)N[C@@H](CCN)C(=O)N[C@H](C(=O)N[C@@H](C)C(=O)N[C@@H](CCCCN)C(=O)N[C@@H](C)B3O[C@@H]4C[C@@H]5C[C@@H](C5(C)C)[C@]4(C)O3)[C@H](C)O)cc2)cc1 [Compound 125] ({Biphenylcarbonyl(4'-Bu)}-[Dab][aThr]AK-{boroAla((+)-pinanediol)})	10
C[C@H](NC(=O)[C@@H](NC(=O)[C@H](CN)NC(=O)c1ccc(-c2ccc(Cl)cc2)cc1)[C@@H](C)O)C(=O)N[C@@H](CCCCN)C(=O)N[C@@H](C)C(=O)c1nc2ccccc2o1 [Compound 214] ({Benzoyl(4-(4-Cl-Ph))}-[Dap]TAK-X12)	180
CCCCc1ccc(-c2ccc(C(=O)N[C@@H](CCN)C(=O)N[C@H](C(=O)N[C@@H](C)C(=O)N[C@@H](CCCCN)C(=O)N[C@@H](C)C(=O)C3CO3)[C@@H](C)O)cc2)cc1 (single isomer, unassigned) [Compound 201 P1]	7

Prompt: Need IC50 of CCCCc1ccc(-c2ccc(C(=O)N[C@@H](CCN)C(=O)N[C@H](C(=O)N[C@@H](C)C(=O)N[C@@H](CCCCN)C(=O)N[C@@H](C)C(=O)C3(C)CO3)[C@@H](C)O)cc2)cc1 (single isomer, unassigned) [Compound 207 P1] , thanks.
Response: 1800

Prompt: Need IC50 of CCCCNC(=O)C(=O)[C@H](C)NC(=O)[C@H](CCCCN)NC(=O)[C@H](C)NC(=O)[C@@H](NC(=O)[C@H](CN)NC(=O)c1ccc(-c2ccc(Cl)cc2)cc1)[C@@H](C)O [Compound 105] ({Benzoyl(4-(4-Cl-Ph))}-[Dap]TAK[X1]-NHBu) , thanks.
Response: 900

Prompt: Need IC50 of CCCCc1ccc(-c2ccc(C(=O)N[C@@H](CCN)C(=O)N[C@@H](CCC(N)=O)C(=O)N[C@@H](C)C(=O)N[C@@H](CCCCN)C(=O)N[C@@H](C)B3OC4C[C@@H]5C[C@@H](C5(C)C)[C@]4(C)O3)cc2)cc1 (stereo partly shown) [Compound 122] ({Biphenylcarbonyl(4'-Bu)}-[Dab]QAK-X5) , thanks.
Response: 20

---

Overview of reported MIC (μg/mL) E. coli across a group of molecules:
# Tested on: Escherichia coli strain MC4100 IMP-4213, which harbors an LptD mutation
# Condition Context: E. coli MC4100 IMP-4213; 35° C., 22 hours
Where a SMILES comes first, the peptide text is derived from it. [ ]: non-standard residue; d: D form. The star is where a group is joined. boroAla((+)-pinanediol) = C[C@H](N*)B1O[C@@H]2C[C@@H]3C[C@@H](C3(C)C)[C@]2(C)O1; Benzoyl(4-(4-Cl-Ph)) = O=C(c1ccc(-c2ccc(Cl)cc2)cc1)*; Propanoyl(3-decylamino) = CCCCCCCCCCNCCC(=O)*; X30 = CCCCc1ccc(-c2ncc(C(=O)*)cn2)cc1; X35 = O=C(c1cnc(-c2ccc(Cl)cc2)nc1)*; X15 = Cc1nnc(C(=O)[C@H](C)N*)o1; X23 = O=C(c1ccc(C#CC#CCCO)cc1)*; X2 = C[C@H](N*)C(=O)c1ncco1; boroAla = C[C@H](N*)B(O)O; Dab = NCC[C@H](N)C(=O)O; Dap = NC[C@H](N)C(=O)O
Numbers only here, please. The scale is µg/mL.

Molecule	Endpoint Unit	Numeric Readout
CCCCc1ccc(-c2ncc(C(=O)N[C@@H](CCN)C(=O)N[C@H](C(=O)N[C@@H](C)C(=O)N[C@@H](CCCCN)C(=O)N[C@@H](C)B3O[C@@H]4C[C@@H]5C[C@@H](C5(C)C)[C@]4(C)O3)[C@@H](C)O)cn2)cc1 [Compound 270] (X30-[Dab]TAK-{boroAla((+)-pinanediol)})	µg/mL	0.25
C[C@H](NC(=O)[C@H](CCCCN)NC(=O)[C@H](C)NC(=O)[C@@H](NC(=O)[C@H](CCN)NC(=O)c1ccc(C#CC#CCCO)cc1)[C@@H](C)O)B1O[C@@H]2C[C@@H]3C[C@@H](C3(C)C)[C@]2(C)O1 [Compound 265] (X23-[Dab]TAK-{boroAla((+)-pinanediol)})	µg/mL	16
CCCCCCCCCCNCCC(=O)N[C@@H](CCCCN)C(=O)N[C@@H](C)C(=O)N[C@@H](CCCCN)C(=O)N[C@@H](C)B1O[C@@H]2C[C@@H]3C[C@@H](C3(C)C)[C@]2(C)O1 [Compound 268]	µg/mL	8
C[C@H](NC(=O)[C@H](CCCCN)NC(=O)[C@H](C)NC(=O)[C@@H](NC(=O)[C@H](CCN)NC(=O)c1cnc(-c2ccc(Cl)cc2)nc1)[C@@H](C)O)B1O[C@@H]2C[C@@H]3C[C@@H](C3(C)C)[C@]2(C)O1 [Compound 261] (X35-[Dab]TAK-{boroAla((+)-pinanediol)})	µg/mL	4
CCCCCCCCCCNCCC(=O)N[C@@H](CCCCN)C(=O)N[C@H](C(=O)N[C@@H](C)C(=O)N[C@@H](CC(N)=O)C(=O)N[C@@H](C)B(O)O)[C@@H](C)O [Compound 221] ({Propanoyl(3-decylamino)}-KTAN-boroAla)	µg/mL	64

Prompt: Need MIC (μg/mL) E. coli of Cc1nnc(C(=O)[C@H](C)NC(=O)[C@H](CCCCN)NC(=O)[C@H](C)NC(=O)[C@H](CCCCN)NC(=O)[C@H](CN)NC(=O)c2ccc(-c3ccc(Cl)cc3)cc2)o1 [Compound 213] ({Benzoyl(4-(4-Cl-Ph))}-[Dap]KAK-X15) , thanks.
Response: 64

Prompt: Need MIC (μg/mL) E. coli of CCCCCCCCCCNCCC(=O)N[C@@H](CCCCN)C(=O)N[C@@H](C)C(=O)N[C@@H](CCCCN)C(=O)N[C@@H](C)B(O)O [Compound 269] , thanks.
Response: 11

Prompt: Need MIC (μg/mL) E. coli of C[C@H](NC(=O)[C@@H](NC(=O)[C@H](CN)NC(=O)c1ccc(-c2ccc(Cl)cc2)cc1)[C@@H](C)O)C(=O)N[C@@H](CCCCN)C(=O)N[C@@H](C)C(=O)c1ncco1 [Compound 212] ({Benzoyl(4-(4-Cl-Ph))}-[Dap]TAK-X2) , thanks.
Response: 64

---

# Test system: Escherichia coli strain MC4100 IMP-4213, which harbors an LptD mutation
# Condition Context: E. coli MC4100 IMP-4213; 35° C., 22 hours
*1 amine or outer side, *2 acyl side, *3 side chain or, on linkers, in order; H or OH if unused. Where a SMILES comes first, the peptide text is derived from it. [ ]: non-standard residue; d: D form. The star is where a group is joined. boroAla((+)-pinanediol) = C[C@H](N*)B1O[C@@H]2C[C@@H]3C[C@@H](C3(C)C)[C@]2(C)O1; Benzoyl(4-(4-Cl-Ph)) = O=C(c1ccc(-c2ccc(Cl)cc2)cc1)*; Propanoyl(3-decylamino) = CCCCCCCCCCNCCC(=O)*; X1 = C[C@H](N[*:1])C(=O)C(=O)[*:2]; boroAla = C[C@H](N*)B(O)O; Dap = NC[C@H](N)C(=O)O; NHBu = CCCCN*
Overview of reported MIC (μg/mL) E. coli across a group of compounds:
Numbers only here, please. The scale is µg/mL.

Sample records with MIC (μg/mL) E. coli:
Compound	Measurement Label	Numeric Readout
CCCCCCCCCCNCCC(=O)N[C@@H](CCCCN)C(=O)N[C@H](C(=O)N[C@@H](C)C(=O)N[C@@H](CCCCN)C(=O)N[C@@H](C)B1O[C@@H]2C[C@@H]3C[C@@H](C3(C)C)[C@]2(C)O1)[C@@H](C)O [Compound 217] ({Propanoyl(3-decylamino)}-KTAK-{boroAla((+)-pinanediol)})	MIC (μg/mL) E. coli	23
CCCCCCCCCCNCCN[C@@H](CO)C(=O)N[C@H](C(=O)N[C@@H](C)C(=O)N[C@@H](CCCCN)C(=O)N[C@@H](C)B1O[C@@H]2C[C@@H]3C[C@@H](C3(C)C)[C@]2(C)O1)[C@@H](C)O	MIC (μg/mL) E. coli	64
C[C@H](NC(=O)[C@H](CCCCN)NC(=O)[C@H](C)NC(=O)[C@@H](NC(=O)C(NC(=O)c1ccc(-c2ccc(Cl)cc2)cc1)C1CNC1)[C@@H](C)O)B1O[C@@H]2C[C@@H]3C[C@@H](C3(C)C)[C@]2(C)O1 (stereo partly drawn) [Compound 282]	MIC (μg/mL) E. coli	16
CCCCNC(=O)C(=O)[C@H](C)NC(=O)[C@H](CCCCN)NC(=O)[C@H](C)NC(=O)[C@@H](NC(=O)[C@H](CN)NC(=O)c1ccc(-c2ccc(Cl)cc2)cc1)[C@@H](C)O [Compound 105] ({Benzoyl(4-(4-Cl-Ph))}-[Dap]TAK[X1]-NHBu)	MIC (μg/mL) E. coli	64

Prompt: Need MIC (μg/mL) E. coli of CCCCCCCCCCNCCC(=O)N[C@@H](CN)C(=O)N[C@H](C(=O)N[C@@H](C)C(=O)N[C@@H](CCCCN)C(=O)N[C@@H](C)B(O)O)[C@@H](C)O [Compound 220] ({Propanoyl(3-decylamino)}-[Dap]TAK-boroAla) , thanks.
Response: 16
